test system: MDR1; assay: Permeability Papp (AB) MDR1/MDCKII; conditions: dog, MDCK-MDR1, with Verapamil, efflux_ratio_inhibitor, MDR1-MDCKII, with inhibitor Verapamil
MEASURED QUANTITY: efflux ratio
Could you respond with only the numeric value?

Enquiry: Which efflux ratio is reported for this molecule? Cc1nn(C)cc1-c1cc2c(NC(c3ccc4c(c3)S(=O)(=O)CCC4)C(C)C)ncnc2[nH]1 (stereo not shown) [ASAP-0011446]
Return: 21.8

----------
test system: CYP; experiment: CYP inhibition; format: in vitro ADME; conditions: isoform 3A4; In vitro CYP inhibition pooled; potency class in words
MEASURED QUANTITY: potency

INSERT INTO measurements (compound, result) VALUES
  ('C[C@H](C(=O)O)[C@@H](NC(=O)c1ncnc2[nH]ccc12)c1ccc(Br)cc1', 'weak'),
  ('CC(C)[C@H](Nc1ncnc2[nH]c(-c3cnn(C)c3C#N)cc12)c1ccc2c(n1)OCCO2', 'moderate'),
  ('CC(C)[C@H](Nc1ncnc2[nH]ccc12)c1ccc2c(c1)S(=O)(=O)CCC2', 'moderate'),
  ('CC(C)[C@@H](Nc1ncnc2[nH]c(-c3cnn(C)c3C#N)cc12)c1ccc2c(n1)OCCO2', 'moderate'),
  ('COc1ccc([C@H](Cc2nnn[nH]2)NC(=O)c2ncnc3[nH]ccc23)cc1', 'weak');

Enquiry: Which potency is reported for this compound? Cn1ncc(-c2cc3c(N[C@@H](c4ccc5c(n4)OCCO5)C(C)(C)C)ncnc3[nH]2)c1C#N
Return: moderate

Enquiry: Next compound: CC(C)C(Nc1ncnc2[nH]c(C(=O)NC3CCN(C)C3)cc12)c1ccc2c(c1)S(=O)(=O)CCC2 (centres unmarked)
Return: weak

----------
test system: HeLa-ACE2 cells; details: HeLa-ACE2 cytotoxicity; lowest measured response of the dose series
Entries are sorted into classes by perc_min_measured as follows: low band: < 70%; middle band: ≥ 70% and < 90%; high band: ≥ 90%

INSERT INTO measurements (compound, label) VALUES
  ('CC(C)[C@H](Nc1ncnc2[nH]c(-c3cnn(C)c3C#N)cc12)c1ccc2c(c1)NC(=O)CO2 (single isomer, unassigned) [ASAP-0013255]', 'low band');

Enquiry: State the band of CC(C)[C@@H](Nc1ncnc2[nH]c(-c3cnn(C)c3C#N)cc12)c1ccc2c(n1)NC(=O)CO2 (single isomer, unassigned) [ASAP-0011180]
Return: middle band

Enquiry: Next compound: CC(C)[C@H](Nc1ncnc2[nH]c(-c3cnn(C)c3)cc12)c1ccc2c(c1)S(=O)(=O)CCC2 (single isomer, unassigned) [ASAP-0012327]
Return: high band

Enquiry: Next compound: CCNC(=O)c1cc2c(N[C@@H](c3ccc4c(c3)S(=O)(=O)CCO4)C(C)C)ncnc2[nH]1 (racemic) [ASAP-0012317]
Return: middle band

Enquiry: Next compound: CC(C)[C@H](Nc1ncnc2[nH]c(-c3cnn(C)c3C#N)cc12)c1ccc2c(n1)NC(=O)CO2 (single isomer, unassigned) [ASAP-0011177]
Return: low band

----------
test system: SARS-CoV-2, isolate USA-WA1/2020; experiment: microbe, parasite or virus in culture; assay type: cell-based; conditions: HeLa-ACE2 SARS-CoV-2 antiviral effect without P-gp inhibitor; maximum measured response
# perc_max_measured listing for each entry below
Numeric answer only, unit % assumed.

INSERT INTO measurements (compound, system_tested, numeric_result) VALUES
  ('CC(C)[C@H](Nc1ncnc2[nH]c(-c3cnn(C)c3C#N)cc12)c1ccc2c(n1)OCCO2 [ASAP-0010715]', 'SARS-CoV-2, isolate USA-WA1/2020', 105.242);

Enquiry: Form entry - test system: SARS-CoV-2, isolate USA-WA1/2020; read-out: perc_max_measured; compound: COc1ccc([C@H](Cc2nnn[nH]2)NC(=O)c2ncnc3[nH]ccc23)cc1 [ASAP-0015381]
Return: 102.013

Enquiry: Next compound: CC(C)C(Nc1ncnc2[nH]c(C(=O)NC3CCN(C)C3)cc12)c1ccc2c(c1)S(=O)(=O)CCC2 (stereo not shown) [ASAP-0011198]
Return: 109.068

Enquiry: Next compound: CC(C)[C@H](Nc1ncnc2[nH]ccc12)c1ccc2c(c1)S(=O)(=O)CCC2 [ASAP-0008674]
Return: 158.705
